%Inh values, listed per item
# System: CDK11
# Construct: gene CDK19
# assaySetup: concentration: 1 μM, replicates: in singlicate; n = 1
measurementType: %Inh

>  <smi>
Nc1nc(-c2cccnc2)c(-c2ccnc3ccccc23)s1

>  <testedTarget>
CDK11

>  <measurementType>
%Inh

>  <testValue>
8%

$$$$
>  <smi>
Cc1ccc(NC(=O)c2cccc(C#N)c2)cc1-c1ccc(C(=O)Nc2ccncc2)cc1

>  <testedTarget>
CDK11

>  <measurementType>
%Inh

>  <testValue>
5%

$$$$
>  <smi>
CNc1nccc(-c2c(-c3ccc(F)cc3)ncn2C2CCN(C)CC2)n1

>  <testedTarget>
CDK11

>  <measurementType>
%Inh

>  <testValue>
0%

$$$$
>  <smi>
O=C(Nc1ccccc1)Nc1ccc(Oc2ccc3nccn3n2)cc1

>  <testedTarget>
CDK11

>  <measurementType>
%Inh

>  <testValue>
0%

$$$$
>  <smi>
FC(F)(F)c1ccc(-c2nn3ncccc3c2-c2ccnc(Nc3cccc(C(F)(F)F)c3)n2)cc1

>  <testedTarget>
CDK11;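 further: KINOMEscan kinase panel screen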

>  <measurementType>
%Inh

>  <testValue>
0%

$$$$
